Target: GST-ANAC092(1-176) (Arabidopsis thaliana, UniProt Q9FKA0 1-176)
Sequence: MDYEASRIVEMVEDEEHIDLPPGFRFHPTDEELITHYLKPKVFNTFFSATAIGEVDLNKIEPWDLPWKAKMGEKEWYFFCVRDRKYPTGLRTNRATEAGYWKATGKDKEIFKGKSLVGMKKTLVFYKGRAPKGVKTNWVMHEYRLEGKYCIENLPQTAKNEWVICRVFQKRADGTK
Assay: universal protein binding microarray (PBM); transcription factors of Arabidopsis thaliana; high values mean tight binding
Settings: protein: recombinant; tags: GST; chain copies: 2; dsDNA, one strand shown
Lab note: cut-off is 0.3 E-score. Strictly less in binding signal is 1. Exactly 0.3 E-score or more is 0.

TCACGGAA : 0
CACGTAAC : 0
ATGCCGTA : 0

[ask] Quick check: binding signal of TTACGGAA under 0.3 E-score?
[reply] 1

[ask] Hello, is binding signal of the following sequence strictly smaller than 0.3 E-score? AACGTGTA
[reply] 0

[ask] In the record for GTTCCTTA , is binding signal less than 0.3 E-score?
[reply] 1

[ask] Does the reported binding signal of the following sequence sit strictly below 0.3 E-score? GCACGAAA
[reply] 0

[ask] Lab note: binding signal threshold 0.3 E-score. Does this sequence come in strictly under it? ACGCAAGT
[reply] 0

[ask] Is binding signal strictly under 0.3 E-score for the entry CACACGTC ?
[reply] 0

[ask] Confirm or reject: binding signal of GAAGTAAA lies strictly below 0.3 E-score
[reply] 1
